# Test system: Control lentivirus without spike
# assay-explanation: filter
# study-conditions: three identical arms joined by Trebler, dot blot
attribute-measured: Kd

Query: I have this sequence here, TTACGTCAAGGTGTCACTCCGTAGGGTTTGGCTCCGGGCCTGGCGTCGGTCGTCTCTCGCGAAGCATCTCTTTGGCGTGTTTTTTTTTTTTTTT [TMSA52] , and I need its recorded Kd.
Reply: > 0.5 nM

* * *

# system: Influenza hemagglutinin H3N2-HA (Influenza A virus)
# assay-explanation: BLI
attribute-measured: pKd
Scale: negative log10 of molar concentration, which is what pKd denotes.

Query: Fill in the recorded pKd for this sequence, with Influenza hemagglutinin H3N2-HA (Influenza A virus) as test system: GGGTTTGGGTTGGGTTGGGTTTTTGGGTTTGGGTTGGGTTGGGAAAAA [RHA06]
Reply: 8.10
